Source: ChEMBL document CHEMBL4725341

TESTED SYSTEM: Fatty-acid amide hydrolase 1 (Rattus norvegicus)
Sequence (P97612 whole entry): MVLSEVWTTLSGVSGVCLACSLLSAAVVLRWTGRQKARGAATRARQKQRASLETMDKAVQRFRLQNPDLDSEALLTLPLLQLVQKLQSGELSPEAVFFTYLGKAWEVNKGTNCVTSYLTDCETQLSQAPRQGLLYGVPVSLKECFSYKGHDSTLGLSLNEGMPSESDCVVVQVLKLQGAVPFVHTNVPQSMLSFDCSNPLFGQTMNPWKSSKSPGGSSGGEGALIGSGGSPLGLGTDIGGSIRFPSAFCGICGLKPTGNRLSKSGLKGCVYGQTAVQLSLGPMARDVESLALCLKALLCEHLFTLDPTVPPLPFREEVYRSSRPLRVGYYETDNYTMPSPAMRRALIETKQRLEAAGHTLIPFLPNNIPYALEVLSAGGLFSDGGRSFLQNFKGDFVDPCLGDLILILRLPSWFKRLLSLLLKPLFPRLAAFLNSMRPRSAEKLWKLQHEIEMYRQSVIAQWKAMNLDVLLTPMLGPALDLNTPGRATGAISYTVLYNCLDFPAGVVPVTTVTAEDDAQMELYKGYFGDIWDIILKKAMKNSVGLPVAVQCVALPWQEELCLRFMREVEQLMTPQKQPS
EXPERIMENTAL READOUT: pIC50
Remember the convention: pIC50 equals -log10 of concentration in molar.

Study these solved cases before continuing.
- SMILES REPR: "O=C(Nc1cccnc1)N1C[C@@H]2CN(Cc3cccc(Oc4ccc(Cl)cc4)c3)C[C@@H]21"
  pIC50: 7.06
- SMILES REPR: "CC(C)(C)c1ccc(Oc2cccc(CN3C[C@@H]4CN(C(=O)Nc5noc6ccccc56)C[C@@H]4C3)c2)cc1"
  pIC50: 7.01
- SMILES REPR: "O=C(Nc1ccncn1)N1C[C@H]2CN(Cc3cccc(Oc4ccc(Cl)cc4)c3)C[C@H]2C1"
  pIC50: 7.28
- SMILES REPR: "O=C(Nc1ccon1)N1C[C@H]2CN(Cc3cccc(Oc4ccc(Cl)cc4)c3)C[C@H]2C1"
  pIC50: 8.40
- SMILES REPR: "O=C(Nc1cccnc1)N1C[C@@H]2CCN(Cc3cccc(Oc4ccc(Cl)cc4)c3)C[C@H]2C1"
  pIC50: 5.10
- SMILES REPR: "O=C(Nc1ccc(-n2nccn2)nc1)N1CC[C@@H]2CN(Cc3cccc(Oc4ccc(Cl)cc4)c3)C[C@H]2C1"
  pIC50: 5.51

Tested on Fatty-acid amide hydrolase 1 (Rattus norvegicus): `O=C(Nc1ccc(Cl)nn1)N1C[C@H]2CN(Cc3cccc(Oc4ccc(Cl)cc4)c3)C[C@H]2C1` . Observed pIC50: 6.65

Tested on Fatty-acid amide hydrolase 1 (Rattus norvegicus): `O=C(Nc1noc2ccccc12)N1C[C@H]2CN(Cc3ccc(Oc4ccc(Cl)cc4)cc3)C[C@H]2C1` . Observed pIC50: 7.04

====

MEASUREMENT PROTOCOL: Oral bioavailability in rat
Assay type: ADME, organism-based
CONDITION: in vivo
EXPERIMENTAL READOUT: bioavailability (%)
State just the number; it will be interpreted in %.

For record `O=C(Nc1noc2ccccc12)N1C[C@H]2CN(Cc3cccc(Oc4ccc(Cl)cc4)c3)C[C@H]2C1` the listed bioavailability is 4

====

MEASUREMENT PROTOCOL: Volume of distribution at steady state in po or iv dosed rat
Format: ADME, organism-based
CONDITION: in vivo, read-out: Vdss
EXPERIMENTAL READOUT: Vd (L/kg)
State just the number; it will be interpreted in L/kg.

For record `O=C(Nc1noc2ccccc12)N1C[C@H]2CN(Cc3cccc(Oc4ccc(Cl)cc4)c3)C[C@H]2C1` the listed Vd is 1.43

====

The following are reported log10(IC50) results, target or system UniProt P97612.
# log10 transformed; quantity=IC50; unit=nM

Study these solved cases before continuing.
- COMPOUND: "O=C(Nc1ccc(-n2nccn2)nc1)N1CC2CC1CN2Cc1cccc(Oc2ccc(Cl)cc2)c1 (stereo not drawn)"
  EXPERIMENTAL READOUT: "log10(IC50)"
  VALUE REPORTED: 2.47
- COMPOUND: "O=C(Nc1cccnc1)N1CC[C@@H]2CN(Cc3cccc(Oc4ccc(Cl)cc4)c3)C[C@@H]21"
  EXPERIMENTAL READOUT: "log10(IC50)"
  VALUE REPORTED: 2.78
- COMPOUND: "COc1ccc(Oc2cccc(CN3C[C@@H]4CN(C(=O)Nc5noc6ccccc56)C[C@@H]4C3)c2)cc1"
  EXPERIMENTAL READOUT: "log10(IC50)"
  VALUE REPORTED: 1.04
- COMPOUND: "O=C(Nc1cncc2ccccc12)N1C[C@@H]2CN(Cc3cccc(Oc4ccc(Cl)cc4)c3)C[C@@H]21"
  EXPERIMENTAL READOUT: "log10(IC50)"
  VALUE REPORTED: 1.81
- COMPOUND: "O=C(Nc1cnc2[nH]ccc2c1)N1C[C@@H]2CCN(Cc3cccc(Oc4ccc(Cl)cc4)c3)[C@@H]2C1"
  EXPERIMENTAL READOUT: "log10(IC50)"
  VALUE REPORTED: 2.85
- COMPOUND: "COc1ccncc1NC(=O)N1C[C@H]2CN(Cc3cccc(Oc4ccc(Cl)cc4)c3)C[C@H]2C1"
  EXPERIMENTAL READOUT: "log10(IC50)"
  VALUE REPORTED: 1.89
- COMPOUND: "O=C(Nc1noc2ccccc12)N1C[C@H]2CN(Cc3cccc(Oc4cc(Cl)cc(Cl)c4)c3)C[C@H]2C1"
  EXPERIMENTAL READOUT: "log10(IC50)"
  VALUE REPORTED: 2.61

Kindly consider the entry below.
For record `O=C(Nc1nocc1Cl)N1C[C@H]2CN(Cc3cccc(Oc4ccc(Cl)cc4)c3)C[C@H]2C1` the listed log10(IC50) is 3.94
